B1: OAS1 (parent)
chain: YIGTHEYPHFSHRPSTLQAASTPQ

variants of: B1; test: protein stability index of a GFP-peptide fusion (GPS, HEK-293T) (PSI 1-6); higher = more stable; settings: c terminus: a fixed tail appended;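 further: lentivirally expressed fusions sorted by FACS into six bins by GFP to DsRed ratio, PSI derived from sequencing read proportions per bin multiplied by bin number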
Criterion: protein stability index meeting or surpassing 2. Met: satisfied. Not met: not satisfied.

S11G; satisfied

Query :: Test whether the variant R13D records protein stability index of 2 or higher.
Result :: satisfied

Query :: What do you get for A20Q ?
Result :: not satisfied

Query :: What do you get for Y1R ?
Result :: satisfied
